Origin of the recorded values: patent US4483794A

Parameter: Kb. Scope: all listed entries.
assayed_target: isolated rat uterus (Rattus norvegicus)
Construct: isolated rat uterus; from tissue; host or cells: isolated rat uterus
Sequence (P70536 whole entry): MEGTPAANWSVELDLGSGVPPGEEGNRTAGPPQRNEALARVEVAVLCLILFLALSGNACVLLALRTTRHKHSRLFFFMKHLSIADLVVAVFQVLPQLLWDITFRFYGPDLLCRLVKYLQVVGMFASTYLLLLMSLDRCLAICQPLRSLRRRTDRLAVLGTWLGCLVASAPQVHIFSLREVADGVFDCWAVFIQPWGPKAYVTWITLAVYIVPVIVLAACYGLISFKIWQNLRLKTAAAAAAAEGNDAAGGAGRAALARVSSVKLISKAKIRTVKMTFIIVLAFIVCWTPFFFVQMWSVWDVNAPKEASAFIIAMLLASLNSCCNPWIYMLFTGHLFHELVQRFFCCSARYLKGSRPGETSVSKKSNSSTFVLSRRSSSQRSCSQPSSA
measurement_description: pA2 values as tested with an isolated rat uterus (oxytocin as agonist)
Assay type: cell-based
details: negative decadic logarithm of an inhibitory constant
*1 amine or outer side, *2 acyl side, *3 side chain or, on linkers, in order; H or OH if unused. Where a SMILES comes first, the peptide text is derived from it. Bridges are numbered along the chain shown (N, C = ends). [ ]: non-standard residue; d: D form. dPhe(4-Et) = CCc1ccc(C[C@@H](N)C(=O)O)cc1; dPhe(4-Me) = Cc1ccc(C[C@@H](N)C(=O)O)cc1; hCys = N[C@@H](CCS)C(=O)O; X1 = O=C(CC[*:2])[*:1]
quantity_name: Kb (nM)

{"compound": "CCOc1ccc(C[C@H]2NC(=O)CCSCC[C@@H](C(=O)N3CCC[C@H]3C(=O)N[C@@H](CC(C)C)C(=O)NCC(N)=O)NC(=O)[C@H](CC(N)=O)NC(=O)[C@H](CCC(N)=O)NC(=O)[C@H]([C@@H](C)CC)NC2=O)cc1 [Ib] ([dY](Et)IQN[hCys]PLG-NH2; linker N-5 via X1)", "quantity_name": "Kb", "value_units": "nM", "measured_result": 28.8}
{"compound": "CC[C@H](C)[C@@H]1NC(=O)[C@@H](Cc2ccc(C)cc2)NC(=O)CCSCC[C@@H](C(=O)N2CCC[C@H]2C(=O)N[C@@H](CC(C)C)C(=O)O)NC(=O)[C@H](CC(N)=O)NC(=O)[C@H](CCC(N)=O)NC1=O [Ij] ([dPhe(4-Me)]IQN[hCys]PL-OH; linker N-5 via X1)", "quantity_name": "Kb", "value_units": "nM", "measured_result": 1.58}
{"compound": "CC[C@H](C)[C@@H]1NC(=O)[C@@H](Cc2ccc(C)cc2)NC(=O)CCSCC[C@@H](C(=O)N2CCC[C@H]2C(=O)N[C@@H](CC(C)C)C(=O)NCC(N)=O)NC(=O)[C@H](CC(N)=O)NC(=O)[C@H](CCC(N)=O)NC1=O [Ic] ([dPhe(4-Me)]IQN[hCys]PLG-NH2; linker N-5 via X1)", "quantity_name": "Kb", "value_units": "nM", "measured_result": 1.86}
{"compound": "CCc1ccc(C[C@H]2NC(=O)[C@@H](N)CSSC[C@@H](C(=O)N3CCC[C@H]3C(=O)N[C@@H](CC(C)C)C(=O)NCC(N)=O)NC(=O)[C@H](CC(N)=O)NC(=O)[C@H](CCC(N)=O)NC(=O)[C@H]([C@@H](C)CC)NC2=O)cc1 [If, [2-D-p-Ethylphenylalanine]oxytocin] (HELM PEPTIDE1{C.[CCc1ccc(C[C@@H](N[*:1])C(=O)[*:2])cc1].I.Q.N.C.P.L.G.[am]}$PEPTIDE1,PEPTIDE1,1:R3-6:R3$$$V2.0)", "quantity_name": "Kb", "value_units": "nM", "measured_result": 7.08}
{"compound": "CC[C@H](C)[C@@H]1NC(=O)[C@@H](Cc2ccccc2)NC(=O)CCSCC[C@@H](C(=O)N2CCC[C@H]2C(=O)N[C@@H](CC(C)C)C(=O)NCC(N)=O)NC(=O)[C@H](CC(N)=O)NC(=O)[C@H](CCC(N)=O)NC1=O [Ia] (HELM PEPTIDE1{[dF].I.Q.N.[O=C([C@H](CCS[*:3])N[*:1])[*:2]].P.L.G.[am]}|CHEM1{[O=C(CC[*:2])[*:1]]}$PEPTIDE1,CHEM1,1:R1-1:R1|PEPTIDE1,CHEM1,5:R3-1:R2$$$V2.0)", "quantity_name": "Kb", "value_units": "nM", "measured_result": 5.5}
{"compound": "CCc1ccc(C[C@H]2NC(=O)CCSCC[C@@H](C(=O)N3CCC[C@H]3C(=O)N[C@@H](CC(C)C)C(=O)NCC(N)=O)NC(=O)[C@H](CC(N)=O)NC(=O)[C@H](CCC(N)=O)NC(=O)[C@H]([C@@H](C)CC)NC2=O)cc1 [Id] ([dPhe(4-Et)]IQN[hCys]PLG-NH2; linker N-5 via X1)", "quantity_name": "Kb", "value_units": "nM", "measured_result": 1.86}
{"compound": "CCc1ccc(C[C@H]2NC(=O)[C@@H](N)C(C)(C)SSC[C@@H](C(=O)N3CCC[C@H]3C(=O)N[C@@H](CC(C)C)C(=O)NCC(N)=O)NC(=O)[C@H](CC(N)=O)NC(=O)[C@H](CCC(N)=O)NC(=O)[C@H]([C@@H](C)CC)NC2=O)cc1 [Ig] (HELM PEPTIDE1{[Pen].[CCc1ccc(C[C@@H](N[*:1])C(=O)[*:2])cc1].I.Q.N.C.P.L.G.[am]}$PEPTIDE1,PEPTIDE1,1:R3-6:R3$$$V2.0)", "quantity_name": "Kb", "value_units": "nM", "measured_result": 8.13}
{"compound": "CCc1ccc(C[C@H]2NC(=O)[C@@H](NC(=O)CNC(=O)CNC(=O)CN)CSSC[C@@H](C(=O)N3CCC[C@H]3C(=O)N[C@@H](CC(C)C)C(=O)NCC(N)=O)NC(=O)[C@H](CC(N)=O)NC(=O)[C@H](CCC(N)=O)NC(=O)[C@H]([C@@H](C)CC)NC2=O)cc1 [Ii] (HELM PEPTIDE1{G.G.G.C.[CCc1ccc(C[C@@H](N[*:1])C(=O)[*:2])cc1].I.Q.N.C.P.L.G.[am]}$PEPTIDE1,PEPTIDE1,4:R3-9:R3$$$V2.0)", "quantity_name": "Kb", "value_units": "nM", "measured_result": 724}
